Where do the numbers come from? From ChEMBL document CHEMBL4190408.

- experiment_summary: Apparent clearance in Balb/c mouse at 100 mg/kg, po after 1 hr
- Type: ADME, organism-based
- test_context: in vivo
endpoint_label: CL/F
Just so you know, I need the unit written after the number.

In: Any idea what CL/F was measured for COc1ccc(NC(=O)N2CCN(c3nc(N)nc4scnc34)CC2)cc1 ?
Out: 86 mL/min/kg

----------
- experiment_summary: physchem
- test_context: buffer, pH 7.4
endpoint_label: solubility kinetic at 1.5 h

[
  {
    "compound": "COc1ccc(NC(=O)N2C[C@@H](C)N(c3nc(N)nc4scnc34)[C@@H](C)C2)cc1",
    "solubility kinetic at 1.5 h": "83 µM"
  },
  {
    "compound": "COc1ccc(NC(=O)N2CCN(c3nc(N)nc4scnc34)[C@@H](C)C2)c(C)c1",
    "solubility kinetic at 1.5 h": "160 µM"
  },
  {
    "compound": "COc1ccc(NC(=O)N2CC3CCC(C2)N3c2nc(N)nc3scnc23)cc1",
    "solubility kinetic at 1.5 h": "> 350 µM"
  },
  {
    "compound": "COc1ccc(NC(=O)N2CCN(c3nc(N)nc4scnc34)[C@@H](C)C2)c(C)n1",
    "solubility kinetic at 1.5 h": "> 350 µM"
  },
  {
    "compound": "COc1ccc(NC(=O)N2CCN(c3nc(N)nc4c3ncn4C)[C@@H](C)C2)c(C)c1",
    "solubility kinetic at 1.5 h": "> 350 µM"
  },
  {
    "compound": "COc1ccc(NC(=O)N2CCN(c3nc(N)nc4scnc34)C(C)C2C)cc1 (stereo not given)",
    "solubility kinetic at 1.5 h": "> 350 µM"
  },
  {
    "compound": "Cc1cccc(NC(=O)N2CCN(c3nc(N)nc4scnc34)CC2)c1",
    "solubility kinetic at 1.5 h": "34 µM"
  },
  {
    "compound": "Nc1nc(N2CCN(C(=O)c3cn4ccccc4n3)CC2)c2ncsc2n1",
    "solubility kinetic at 1.5 h": "> 350 µM"
  }
]

In: Any idea what solubility kinetic at 1.5 h was measured for COc1ccc(NC(=O)N2C[C@H](C)N(c3nc(N)nc4scnc34)C[C@H]2C)cc1 ?
Out: 88 µM

In: Any idea what solubility kinetic at 1.5 h was measured for COc1cc(C)c(NC(=O)N2CCN(c3nc(N)nc4scnc34)CC2)cn1 ?
Out: > 350 µM

----------
- experiment_summary: Clearance in Balb/c mouse at 1 mg/kg, iv
- Assay type: ADME, organism-based
- test_context: Balb/c, in vivo
Below, each of the compounds is paired with its reported clearance value.
Write the answer as a number in L/h/kg, unit excluded.

[
  {
    "smiles_str": "COc1ccc(NC(=O)N2CCN(c3nc(N)nc4c3ncn4C)[C@@H](C)C2)c(C)c1",
    "clearance (L/h/kg)": 1.14
  },
  {
    "smiles_str": "COc1ccc(NC(=O)N2CCN(c3nc(N)nc4c3cnn4C)[C@@H](C)C2)c(C)c1",
    "clearance (L/h/kg)": 0.3
  }
]

In: Any idea what clearance was measured for COc1ccc(NC(=O)N2CCN(c3nc(N)nc4scnc34)[C@@H](C)C2)cc1 ?
Out: 1.74

----------
- experiment_summary: in vitro
- test_context: human, microsomes
endpoint_label: microsomal CLint at 0.75 h, 3 µM (µL/min/mg)
Write the answer as a number in µL/min/mg, unit excluded.

In: Any idea what microsomal CLint at 0.75 h, 3 µM was measured for Cc1ccc(NC(=O)N2CCN(c3nc(N)nc4sc(-c5cccnc5)nc34)CC2)cc1 ?
Out: 32

----------
- experiment_summary: physchem
- test_context: phosphate buffer, pH 7.4
Below, each of the compounds is paired with its reported logD at 1.5 h value.
Hey, just send me the number, nothing else.

[
  {
    "smiles_str": "Nc1nc(N2CCN(C(=O)c3cc4ccccc4[nH]3)CC2)c2ncsc2n1",
    "result_number": 2.84
  },
  {
    "smiles_str": "COc1ccc(NC(=O)N2CCN(c3nc(N)nc4scnc34)CC2)cc1",
    "result_number": 1.85
  },
  {
    "smiles_str": "COc1ccc(NC(=O)N2CCN(c3nc(N)nc4c3cnn4C)[C@@H](C)C2)c(C)c1",
    "result_number": 1.47
  },
  {
    "smiles_str": "COc1ccc(NC(=O)N2CCN(c3nc(N)nc4sccc34)[C@@H](C)C2)c(C)c1",
    "result_number": 2.39
  },
  {
    "smiles_str": "COc1ccc(CC(=O)N2CCN(c3nc(N)nc4scnc34)CC2)cc1OC",
    "result_number": 1.5
  }
]

In: Any idea what logD at 1.5 h was measured for COc1ccc(CNC(=O)N2CCN(c3nc(N)nc4scnc34)CC2)cc1 ?
Out: 2.22

In: Any idea what logD at 1.5 h was measured for COc1ccc(NC(=O)N2CCN(c3nc(N)nc4sncc34)[C@@H](C)C2)c(C)c1 ?
Out: 1.96

In: Any idea what logD at 1.5 h was measured for COc1ccc(NC(=O)N2CCN(c3nc(N)nc4c3ncn4C)[C@@H](C)C2)c(C)c1 ?
Out: 1.35

In: Any idea what logD at 1.5 h was measured for Nc1nc(N2CCN(C(=O)c3cn4ccccc4n3)CC2)c2ncsc2n1 ?
Out: 1.58

----------
- experiment_summary: Fraction unbound in mouse blood
- Type: ADME, tissue-based
endpoint_label: fraction unbound

Would you please look over these solved cases?
[
  {
    "smiles_str": "COc1ccc(NC(=O)N2CCN(c3nc(N)nc4c3ncn4C)[C@@H](C)C2)c(C)c1",
    "result": 0.2
  },
  {
    "smiles_str": "COc1ccc(NC(=O)N2CCN(c3nc(N)nc4c3cnn4C)[C@@H](C)C2)c(C)c1",
    "result": 0.09
  },
  {
    "smiles_str": "COc1ccc(NC(=O)N2CCN(c3nc(N)nc4scnc34)CC2)cc1",
    "result": 0.061
  }
]

In: Any idea what fraction unbound was measured for COc1ccc(NC(=O)N2CCN(c3nc(N)nc4scnc34)[C@@H](C)C2)cc1 ?
Out: 0.02

----------
- experiment_summary: physchem
- test_context: buffer, pH 7.4
Below, each of the molecules is paired with its reported solubility kinetic at 1.5 h value.
Write the answer as a number in µM, unit excluded.

Would you please look over these solved cases?
[
  {
    "smiles_str": "Nc1nc(N2CCN(C(=O)COc3ccc(Cl)cc3)CC2)c2ncsc2n1",
    "solubility kinetic at 1.5 h, µM": 13
  },
  {
    "smiles_str": "COc1ccc(NC(=O)N2CCN(c3nc(N)nc4sccc34)[C@@H](C)C2)c(C)c1",
    "solubility kinetic at 1.5 h, µM": 82
  },
  {
    "smiles_str": "Nc1nc(N2CCN(C(=O)c3cc4ccccc4[nH]3)CC2)c2ncsc2n1",
    "solubility kinetic at 1.5 h, µM": 14
  },
  {
    "smiles_str": "Cc1ccccc1NC(=O)N1CCN(c2nc(N)nc3scnc23)CC1",
    "solubility kinetic at 1.5 h, µM": 33
  },
  {
    "smiles_str": "COc1ccc(NC(=O)N2CCN(c3nc(N)nc4scnc34)[C@H](C)C2)c(C)c1",
    "solubility kinetic at 1.5 h, µM": 170
  },
  {
    "smiles_str": "COc1ccc(NC(=O)N2CCN(c3nc(N)nc4sc(-c5ccccc5)nc34)CC2)cc1",
    "solubility kinetic at 1.5 h, µM": 6
  }
]

In: Any idea what solubility kinetic at 1.5 h was measured for COc1ccc(NC(=O)N2CCN(c3nc(N)nc4scnc34)CC2)c(C)c1 ?
Out: 33

In: Any idea what solubility kinetic at 1.5 h was measured for COc1ccc(CNC(=O)N2CCN(c3nc(N)nc4scnc34)CC2)cc1 ?
Out: 33

In: Any idea what solubility kinetic at 1.5 h was measured for COc1ccc(NC(=O)N2CCN(c3nc(N)nc4scnc34)CC2)cn1 ?
Out: 293

In: Any idea what solubility kinetic at 1.5 h was measured for Nc1nc(N2CCN(C(=O)c3nc4ccccc4[nH]3)CC2)c2ncsc2n1 ?
Out: 38

In: Any idea what solubility kinetic at 1.5 h was measured for Nc1nc(N2CCN(C(=O)Nc3ccccc3)CC2)c2ncsc2n1 ?
Out: 178

In: Any idea what solubility kinetic at 1.5 h was measured for COc1ccc(NC(=O)N2CCN(c3nc(N)nc4scnc34)CC2)c(C)n1 ?
Out: 207

In: Any idea what solubility kinetic at 1.5 h was measured for Cc1ccc(NC(=O)N2CCN(c3nc(N)nc4scnc34)CC2)cc1 ?
Out: 21

In: Any idea what solubility kinetic at 1.5 h was measured for Nc1nc(N2CCN(C(=O)Nc3ccc(OC(F)(F)F)cc3)CC2)c2ncsc2n1 ?
Out: 12
